Tested on: ARPE-19 cells
Experiment: Lysosomal pH (pHL) with LysoSensor Yellow/Blue, high through-put screen
Type: cell-based, human
Details: cells without other alkalinizing agent; NH4Cl 10 mM, BAF 200 nM, CHQ 20 μM, CFTR-172 10 μM, LDL 10 μg/ml; others not given
quantityMeasured: effect on pHL, agent alone

Which effect on pHL, agent alone reading was recorded for the compound O=c1c(-c2ccc(O)cc2)coc2cc(O)cc(O)c12 [genistein] ?
smaller effects

Field entry: COc1ccc(Cl)cc1C(=O)NCCc1ccc(S(=O)(=O)NC(=O)NC2CCCCC2)cc1 [glybenclamide]
smaller effects

----------
Tested on: ARPE-19 cells
Assay: Lysosomal pH (pHL) with LysoSensor Yellow/Blue, high through-put screen
Type: cell-based, human
Settings: cells without other alkalinizing agent; NH4Cl 10 mM, BAF 200 nM, CHQ 20 μM, CFTR-172 10 μM, LDL 10 μg/ml; others not given
quantityMeasured: effect on pHL, agent alone

Quick check: effect on pHL, agent alone on ARPE-19 cells, item CCN(CC)CCCC(C)Nc1ccnc2cc(Cl)ccc12 (stereo not shown) ?
pH was elevated

Field entry: CO/C1=C\C(C)=C\[C@@H](C)[C@@H](O)[C@@H](C)C/C(C)=C/C=C/[C@H](OC)[C@@H]([C@@H](C)[C@@H](O)[C@H](C)[C@@]2(O)C[C@@H](O)[C@H](C)[C@@H](C(C)C)O2)OC1=O
pH was elevated

----------
Test system: ARPE-19 cells
Assay: Lysosomal pH (pHL) with LysoSensor Yellow/Blue, high through-put screen
Format: cell-based, human
Conditions: tamoxifen concentration not stated; A68930 and A77636 at 1 μM
quantityMeasured: effect on pHL of cells treated with tamoxifen

Quick check: effect on pHL of cells treated with tamoxifen on ARPE-19 cells, item OC[C@H]1O[C@@H](n2cnc3c(NC4CCCC4)ncnc32)[C@H](O)[C@@H]1O ?
had no effect

Field entry: NC[C@@H]1O[C@H](C23CC4CC(CC(C4)C2)C3)Cc2c1ccc(O)c2O
decreased lysosomal pH

Field entry: NC[C@@H]1O[C@H](c2ccccc2)Cc2c1ccc(O)c2O
decreased lysosomal pH

Field entry: OC[C@H]1O[C@@H](n2cnc3c(NC4CC5CCC4C5)ncnc32)[C@H](O)[C@@H]1O (stereo partly drawn) [ENBA, (2S)-N^6-[2-endo-norbornyl]adenosine]
had no effect
